Examples of compounds with documented ALT follow.
Species: Rattus norvegicus
Test: Open TG-GATES - Regimen: Daily Repeat
Format: toxicity, organism-based, Sprague-Dawley
Parameters: regimen Daily Repeat, gender Male, age 6 weeks
Conditions: in vivo, po, 300 mg/kg, […], tissue Plasma, route gavage, dose level Middle, time 28 day
Field: numeric (IU/L). Do not append units.

{"compound": "NC(N)=Nc1nc(CSCCC(N)=NS(N)(=O)=O)cs1", "unit tag": "IU/L", "ALT": 35.2}
{"compound": "CCOC(=O)CCC(=O)O[C@H]1[C@H](O[C@@H]2[C@@H](C)[C@H](O[C@H]3C[C@@](C)(OC)[C@@H](O)[C@H](C)O3)[C@@H](C)C(=O)O[C@H](CC)[C@@](C)(O)[C@H](O)[C@@H](C)C(=O)[C@H](C)C[C@@]2(C)O)O[C@H](C)C[C@@H]1N(C)C [ERYTHROMYCIN ETHYLSUCCINATE]", "unit tag": "IU/L", "ALT": 36.8}
{"compound": "COC1=CC(=O)C[C@@H](C)[C@]12Oc1c(Cl)c(OC)cc(OC)c1C2=O", "unit tag": "IU/L", "ALT": 34.8}

Prompt line: For the compound CCOc1ccc(NC(=O)CC(C)O)cc1 (centres undefined) , what ALT is on record?
Response line: 39

---

Organism: Rattus norvegicus
Experiment: Open TG-GATES - Regimen: Single
Type: toxicity, organism-based, Sprague-Dawley
Design: regimen Single, gender Male, age 6 weeks
Conditions: in vivo, po, 100 mg/kg, 6 h, tissue Plasma, route gavage, dose level High
measured metric: AST (IU/L)
Field: numeric (IU/L). Do not append units.

{"molecule": "CN(C)CCCN1c2ccccc2CCc2ccccc21 [IMIPRAMINE]", "measured metric": "AST", "unit tag": "IU/L", "observed measurement": 64.2}
{"molecule": "CN(C)CCCN1c2ccccc2CCc2ccc(Cl)cc21 [CLOMIPRAMINE]", "measured metric": "AST", "unit tag": "IU/L", "observed measurement": 76.2}
{"molecule": "CC1=C(/C=C/C(C)=C/C=C/C(C)=C/CO)C(C)(C)CCC1 [RETINOL]", "measured metric": "AST", "unit tag": "IU/L", "observed measurement": 74}

Prompt line: For the molecule `CN(C)CCN(Cc1cccs1)c1ccccn1` , what AST is on record?
Response line: 90.2

---

Species on record: Rattus norvegicus
Assay: Open TG-GATES - Regimen: Daily Repeat
Type: toxicity, organism-based, Sprague-Dawley
Parameters: regimen Daily Repeat, gender Male, age 6 weeks
Settings: in vivo, po, 10 mg/kg, […], tissue Plasma, route gavage, dose level Low, time 7 day
Examples of compounds with documented TBIL follow.
Field: numeric (mg/dL). Do not append units.

Below: 3 compounds and their reported TBIL.
{"compound": "CN(C)CCN(Cc1cccs1)c1ccccn1", "measured metric": "TBIL", "observed measurement": 0.008}
{"compound": "CN(C)CCCN1c2ccccc2CCc2ccccc21 [IMIPRAMINE]", "measured metric": "TBIL", "observed measurement": 0.05}
{"compound": "CC(C)OC(=O)C(C)(C)Oc1ccc(C(=O)c2ccc(Cl)cc2)cc1 [FENOFIBRATE]", "measured metric": "TBIL", "observed measurement": 0.026}

We now examine a further compound.
Prompt line: For the compound CC1=C(/C=C/C(C)=C/C=C/C(C)=C/CO)C(C)(C)CCC1 [RETINOL] , what TBIL is on record?
Response line: 0.006

---

Organism: Rattus norvegicus
Assay: Open TG-GATES - Regimen: Daily Repeat
Type: toxicity, organism-based, Sprague-Dawley
Design: regimen Daily Repeat, gender Male, age 6 weeks
Conditions: in vivo, po, 1000 mg/kg, […], tissue Blood, route gavage, dose level High, time 28 day
measured metric: MCV (fL)
Field: numeric (fL). Do not append units.

{"compound": "CC(C)OC(=O)C(C)(C)Oc1ccc(C(=O)c2ccc(Cl)cc2)cc1 [FENOFIBRATE]", "unit tag": "fL", "MCV": 57.2}
{"compound": "CCOc1ccc(NC(=O)CC(C)O)cc1 (stereo not drawn)", "unit tag": "fL", "MCV": 68.4}

We now examine a further compound.
Prompt line: For the compound `NC(N)=Nc1nc(CSCCC(N)=NS(N)(=O)=O)cs1` , what MCV is on record?
Response line: 55.4

---

Species: Rattus norvegicus
Test: Open TG-GATES - Regimen: Single
Format: toxicity, organism-based, Sprague-Dawley
Parameters: regimen Single, gender Male, age 6 weeks
Settings: in vivo, po, 30 mg/kg, 3 h, tissue Kidney, route gavage, dose level Middle
measured metric: KIDNEY_TOTAL (g)
Field: numeric (g). Do not append units.

Below: 3 molecules and their reported KIDNEY_TOTAL.
{"molecule smiles": "CN(C)CCCN1c2ccccc2CCc2ccc(Cl)cc21", "unit tag": "g", "observed measurement": 1.9}
{"molecule smiles": "CN(C)CCCN1c2ccccc2CCc2ccccc21", "unit tag": "g", "observed measurement": 1.8}
{"molecule smiles": "CC1=C(/C=C/C(C)=C/C=C/C(C)=C/CO)C(C)(C)CCC1", "unit tag": "g", "observed measurement": 1.8}

Prompt line: For the molecule `CN(C)CCN(Cc1cccs1)c1ccccn1` , what KIDNEY_TOTAL is on record?
Response line: 1.7

---

Species: Rattus norvegicus
Assay: Open TG-GATES - Regimen: Daily Repeat
Type: toxicity, organism-based, Sprague-Dawley
Set-up: regimen Daily Repeat, gender Male, age 6 weeks
Details: in vivo, po, 300 mg/kg, […], tissue Blood, route gavage, dose level Middle, time 28 day
measured metric: Ret (%)
Field: numeric (%). Do not append units.

{"molecule": "CCOc1ccc(NC(=O)CC(C)O)cc1 (stereo not given) [BUCETIN]", "measured metric": "Ret", "unit tag": "%", "observed measurement": 3.5}
{"molecule": "NC(N)=Nc1nc(CSCCC(N)=NS(N)(=O)=O)cs1 [FAMOTIDINE]", "measured metric": "Ret", "unit tag": "%", "observed measurement": 2.3}
{"molecule": "CCOC(=O)CCC(=O)O[C@H]1[C@H](O[C@@H]2[C@@H](C)[C@H](O[C@H]3C[C@@](C)(OC)[C@@H](O)[C@H](C)O3)[C@@H](C)C(=O)O[C@H](CC)[C@@](C)(O)[C@H](O)[C@@H](C)C(=O)[C@H](C)C[C@@]2(C)O)O[C@H](C)C[C@@H]1N(C)C [ERYTHROMYCIN ETHYLSUCCINATE]", "measured metric": "Ret", "unit tag": "%", "observed measurement": 2.5}
{"molecule": "COc1ccc2[nH]c([S+]([O-])Cc3ncc(C)c(OC)c3C)nc2c1 (stereo not given) [OMEPRAZOLE]", "measured metric": "Ret", "unit tag": "%", "observed measurement": 2.7}

We now examine a further molecule.
Prompt line: For the molecule COC1=CC(=O)C[C@@H](C)[C@]12Oc1c(Cl)c(OC)cc(OC)c1C2=O [GRISEOFULVIN] , what Ret is on record?
Response line: 2.7

---

Examples of molecules with documented Na follow.
Organism: Rattus norvegicus
Assay: Open TG-GATES - Regimen: Single
Format: toxicity, organism-based, Sprague-Dawley
Design: regimen Single, gender Male, age 6 weeks
Details: in vivo, po, 0 mg/kg, 6 h, tissue Plasma, route gavage, dose level Control
Field: numeric (meq/L). Do not append units.

Below: 4 molecules and their reported Na.
{"molecule": "CN(C)CCN(Cc1cccs1)c1ccccn1", "measured metric": "Na", "unit tag": "meq/L", "observed measurement": 141.8}
{"molecule": "CCOc1ccc(NC(=O)CC(C)O)cc1 (stereo unspecified)", "measured metric": "Na", "unit tag": "meq/L", "observed measurement": 142.8}
{"molecule": "COc1ccc2[nH]c([S+]([O-])Cc3ncc(C)c(OC)c3C)nc2c1 (stereo unspecified)", "measured metric": "Na", "unit tag": "meq/L", "observed measurement": 140}
{"molecule": "CN1C(=O)CN=C(c2ccccc2)c2cc(Cl)ccc21", "measured metric": "Na", "unit tag": "meq/L", "observed measurement": 138.6}

Prompt line: For the molecule `CC1=C(/C=C/C(C)=C/C=C/C(C)=C/CO)C(C)(C)CCC1` , what Na is on record?
Response line: 142

Prompt line: For the molecule `COc1cc2c(c(OC)c1OC)-c1ccc(OC)c(=O)cc1[C@@H](NC(C)=O)CC2` , what Na is on record?
Response line: 139

---

Examples of compounds with documented Bas follow.
Organism: Rattus norvegicus
Assay: Open TG-GATES - Regimen: Daily Repeat
Assay type: toxicity, organism-based, Sprague-Dawley
Set-up: regimen Daily Repeat, gender Male, age 6 weeks
Conditions: in vivo, po, 10 mg/kg, 72 h, tissue Blood, route gavage, dose level Low, time 3 day

Below: 3 compounds and their reported Bas.
{"compound": "CC1=C(/C=C/C(C)=C/C=C/C(C)=C/CO)C(C)(C)CCC1 [RETINOL]", "Bas": "0%"}
{"compound": "CC(C)OC(=O)C(C)(C)Oc1ccc(C(=O)c2ccc(Cl)cc2)cc1 [FENOFIBRATE]", "Bas": "0.4%"}
{"compound": "CN(C)CCN(Cc1cccs1)c1ccccn1", "Bas": "0%"}

We now examine a further compound.
Prompt line: For the compound CN(C)CCCN1c2ccccc2CCc2ccccc21 [IMIPRAMINE] , what Bas is on record?
Response line: 0%
